Test: In vitro enzyme assay to detect hydrolysis of chlorophenol red-beta-D-[…] directly proportional to the number of Toxoplasma stably expressing beta-galactosidase
Format: functional, organism-based, Toxoplasma gondii
Set-up: scale not given: in the data most compounds retested in dose-response had high values
Conditions: 50 µM
About 440 (0.52%) of roughly 85,000 compounds showed an effect of 50% or more. The full list was thinned out, with strong results kept by preference.

compound: Cc1cc(C(=O)NCCc2noc(C3CC3)n2)[nH]n1
Percent Effect: 12.77%

compound: Cc1cccc(OCCc2noc(C3CNC3)n2)c1
Percent Effect: 82.99%

compound: CCOC1CCCN(C(=O)c2ccc(C)[nH]c2=O)C1 (centres undefined)
Percent Effect: 1.701%

compound: CC(C)NC(=O)CNCc1ccc(Br)o1
Percent Effect: 0.3067%

compound: CCC(=O)NC(C)(C#N)C(C)C (centres undefined)
Percent Effect: 2.056%

compound: CC(N)c1nnc2ccccn12 (centres undefined)
Percent Effect: 17.22%

compound: CC(=O)c1ccc(OCC(O)CNC2CCCC2)cc1 (centres undefined)
Percent Effect: 6.61%

compound: Cc1cc(C(=O)NCCc2noc(C3CC3)n2)nn1C
Percent Effect: 97.7%

compound: C1CC(COCCc2noc(C3CNC3)n2)CCO1
Percent Effect: 31.48%

compound: C(Cc1noc(C2CNC2)n1)OCC1CC1
Percent Effect: 84.88%

compound: c1ccc(COCc2nc(C3CCCNC3)no2)cc1 (centres undefined)
Percent Effect: -2.705%

compound: N#CC[C@@H](N)c1ccccc1
Percent Effect: -6.546%

compound: CC(C)(C)OC(=O)N1CCC(n2cc(N)cn2)CC1
Percent Effect: -15.49%

compound: CC(C)CC(C)(N)CO (centres undefined)
Percent Effect: -4.909%

compound: NCc1cccc(CN2CCCC2=O)c1
Percent Effect: -4.942%

compound: CC(=O)NCc1ccc(C(C)=O)s1
Percent Effect: 3.848%

compound: CCn1ncnc1CN1CCC2(CCN(C)C2)CC1
Percent Effect: 28.33%

compound: CC(=O)c1ccc(OCC(O)Cn2ccnc2)cc1 (centres undefined)
Percent Effect: 57.01%

compound: O=C(CN1CCNCC1)NCCSc1ccc(Cl)cc1
Percent Effect: 4.461%

compound: CCn1ccc(C(=O)NCc2ccco2)n1
Percent Effect: -13.38%

compound: CS(=O)(=O)Nc1ccccc1CNC(=O)c1ccoc1
Percent Effect: 97.49%

compound: Cc1cccc(C(=O)Nc2cccc(O)c2)n1
Percent Effect: 0.8696%

compound: O=C1CN(CC(=O)N2CCc3sccc3C2)CCN1
Percent Effect: 8.555%

compound: c1ccc(COCCc2noc(C3CNC3)n2)cc1
Percent Effect: 62.37%

compound: Cn1cc(C(=O)NCCc2noc(C3CC3)n2)cn1
Percent Effect: -7.141%

compound: N#Cc1ccnc(SCc2ccncc2)c1
Percent Effect: 30.75%

compound: CN(C)c1ncccc1CNC(=O)c1ccoc1
Percent Effect: -3.271%

compound: C1CCC(COCCc2noc(C3CNC3)n2)C1
Percent Effect: 57.88%

compound: C[C@H](N)c1ccc(Cl)s1
Percent Effect: 6.702%
